Catalogue of protein stability index values
B1: TRIM43 (parent)
chain: RAQMIRNEYRKLHPVLHKEEKQHL

Variants of: B1
Protocol: protein stability index of a GFP-peptide fusion (GPS, HEK-293T) (PSI 1-6); higher = more stable;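 also: lentivirally expressed fusions sorted by FACS into six bins by GFP to DsRed ratio, PSI derived from sequencing read proportions per bin multiplied by bin number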
Applied Conditions: c terminus: a fixed tail appended

>  <Biosequence>
RAQMIRNEYRSLHPVLHKEEKQHL [K11S]

>  <protein stability index>
2.96

$$$$
>  <Biosequence>
RAQMIRNEYRKLHPILHKEEKQHL [V15I]

>  <protein stability index>
3.09

$$$$
>  <Biosequence>
RAQMIRNEYRKLKPVLHKEEKQHL [H13K]

>  <protein stability index>
3.55

$$$$
>  <Biosequence>
RAQMINNEYRKLHPVLHKEEKQHL [R6N]

>  <protein stability index>
4.15

$$$$
>  <Biosequence>
RAQMIRNEYRKAHPVLHKEEKQHL [L12A]

>  <protein stability index>
3.67

$$$$
>  <Biosequence>
RAQMIRNEYRKLHPVLHYEEKQHL [K18Y]

>  <protein stability index>
3.09

$$$$
>  <Biosequence>
AAQMIRNEYRKLHPVLHKEEKQHL [R1A]

>  <protein stability index>
3.44

$$$$
>  <Biosequence>
RAQMIRLEYRKLHPVLHKEEKQHL [N7L]

>  <protein stability index>
3.49

$$$$
>  <Biosequence>
RAQMIRNEYRKLHPVLHKEEKMHL [Q22M]

>  <protein stability index>
2.3

$$$$
>  <Biosequence>
RAQMIRNWYRKLHPVLHKEEKQHL [E8W]

>  <protein stability index>
1.33

$$$$
>  <Biosequence>
RAQMIRNEYRKLHPVMHKEEKQHL [L16M]

>  <protein stability index>
3.94

$$$$
>  <Biosequence>
RAQMICNEYRKLHPVLHKEEKQHL [R6C]

>  <protein stability index>
3.67

$$$$
>  <Biosequence>
RAQQIRNEYRKLHPVLHKEEKQHL [M4Q]

>  <protein stability index>
2.8

$$$$
>  <Biosequence>
RAQMIRNESRKLHPVLHKEEKQHL [Y9S]

>  <protein stability index>
3.46

$$$$
>  <Biosequence>
RAQMIRNEYRKGHPVLHKEEKQHL [L12G]

>  <protein stability index>
4.18

$$$$
>  <Biosequence>
RAQMIRNENRKLHPVLHKEEKQHL [Y9N]

>  <protein stability index>
3.79

$$$$
>  <Biosequence>
RYQMIRNEYRKLHPVLHKEEKQHL [A2Y]

>  <protein stability index>
3.13

$$$$
>  <Biosequence>
RAQMISNEYRKLHPVLHKEEKQHL [R6S]

>  <protein stability index>
3.52

$$$$
>  <Biosequence>
RAQMIRNEYRKLHPVLHTEEKQHL [K18T]

>  <protein stability index>
3.06

$$$$
>  <Biosequence>
RAQMIRNEYRKLHPVLHKEEKDHL [Q22D]

>  <protein stability index>
3.65

$$$$
>  <Biosequence>
RAQMIRNEYRKLHPVLHKKEKQHL [E19K]

>  <protein stability index>
3.41

$$$$
>  <Biosequence>
RAQMCRNEYRKLHPVLHKEEKQHL [I5C]

>  <protein stability index>
2.02

$$$$
>  <Biosequence>
RAQMIRNEYRKLHPVLHKEEKWHL [Q22W]

>  <protein stability index>
2

$$$$
>  <Biosequence>
RIQMIRNEYRKLHPVLHKEEKQHL [A2I]

>  <protein stability index>
2.14

$$$$
>  <Biosequence>
RAQMIRNEYRKLHSVLHKEEKQHL [P14S]

>  <protein stability index>
2.04

$$$$
>  <Biosequence>
RAQMIRNEYRKLHPVLHKYEKQHL [E19Y]

>  <protein stability index>
1.97

$$$$
>  <Biosequence>
RAQMIRNEYRILHPVLHKEEKQHL [K11I]

>  <protein stability index>
2.94

$$$$
>  <Biosequence>
RAQMIRNEYRKLHPVLHKEEKPHL [Q22P]

>  <protein stability index>
3.47

$$$$
>  <Biosequence>
RAQMIRNELRKLHPVLHKEEKQHL [Y9L]

>  <protein stability index>
3.25

$$$$
>  <Biosequence>
RAQMPRNEYRKLHPVLHKEEKQHL [I5P]

>  <protein stability index>
3.83

$$$$
>  <Biosequence>
RAQMIRNEYRKLHPVLPKEEKQHL [H17P]

>  <protein stability index>
3.42

$$$$
>  <Biosequence>
RAQMIRNEYVKLHPVLHKEEKQHL [R10V]

>  <protein stability index>
3.73

$$$$
>  <Biosequence>
RAQMIRNFYRKLHPVLHKEEKQHL [E8F]

>  <protein stability index>
2.91

$$$$
>  <Biosequence>
RAQMIGNEYRKLHPVLHKEEKQHL [R6G]

>  <protein stability index>
3.96

$$$$
